- MEASURED ON: Pantothenate synthetase (Mycobacterium tuberculosis (strain ATCC 25618 / H37Rv)) (UniProt P9WIL5)
- Sequence (P9WIL5 whole entry, looked up): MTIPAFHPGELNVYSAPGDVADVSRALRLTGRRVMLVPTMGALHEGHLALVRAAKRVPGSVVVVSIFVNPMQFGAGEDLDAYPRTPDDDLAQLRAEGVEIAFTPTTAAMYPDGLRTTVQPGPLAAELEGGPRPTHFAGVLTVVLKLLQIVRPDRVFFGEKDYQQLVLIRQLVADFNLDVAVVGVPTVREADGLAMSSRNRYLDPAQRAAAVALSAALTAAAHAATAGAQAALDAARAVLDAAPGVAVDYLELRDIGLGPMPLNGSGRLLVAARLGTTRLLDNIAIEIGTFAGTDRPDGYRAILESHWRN
- EXPERIMENT DESCRIPTION: Coupled enzyme confirmation of inhibitors against recombinant Mtb PanC (AID 375);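 note: 0% = full reaction with vehicle and 100% = no enzyme background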
- MEASUREMENT PARAMETERS: coupled enzyme assay; at 10 µM, hits give high values
Parameter inhibition: see the listing below.
Write the value in % as a bare number.

For orientation, consider the following solved cases.
INSERT INTO measurements (molecule, quantity, experimental_result) VALUES
  ('CCOC(=O)c1ccc(NC(=O)CCc2c(C)nc3ncnn3c2C)cc1', 'inhibition', 1),
  ('O=C(CCSc1nc(-c2ccco2)cc(C(F)(F)F)n1)Nc1ccc2c(c1)OCO2', 'inhibition', 0),
  ('CN1CCC(OC(=O)C2c3ccccc3Oc3ccccc32)CC1', 'inhibition', 2),
  ('CCCSc1nc2c(cnn2-c2ccc(C)cc2)c(=O)[nH]1', 'inhibition', 0),
  ('CCOC(=O)c1ccc(NS(=O)(=O)c2ccc3c(c2)CCCN3C(C)=O)cc1', 'inhibition', 0);

Data request: Supply inhibition value. Item: CCc1cc2c(NCCC(=O)O)ncnc2s1
Data returned: 1

Data request: Supply inhibition value. Item: CC(C)C(=O)c1cn(Cc2ccccc2C#N)c2ccccc12
Data returned: 8

Data request: Supply inhibition value. Item: COC(=O)C1=C(C)OC(N)=C(C#N)C1c1ccccc1 (configuration not stated)
Data returned: 0

Data request: Supply inhibition value. Item: CC(=O)c1cc(-c2ccccc2)n(CC(=O)N2CCN(C3CCCC3)CC2)c1C
Data returned: 11

Data request: Supply inhibition value. Item: COC(=O)c1ccnc(/C=N/O)c1
Data returned: 6

Data request: Supply inhibition value. Item: CCn1c(SCC(=O)c2ccc3c(c2)OCCO3)nnc1-c1ccco1
Data returned: 11

Data request: Supply inhibition value. Item: COCCn1c(SCC(=O)Nc2nnc(C)s2)nnc1-c1ccncc1
Data returned: 7

====

Parameter viability: see the listing below.
- EXPERIMENT DESCRIPTION: viability of HCT116 without oncogenic beta-catenin – human colon tumor cells, pilot screen (AID 823);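 note: 0% = wells killed by 20 µM Hyamine and 100% = untreated DMSO cell wells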
- MEASUREMENT PARAMETERS: HCT116 beta-catenin knockout viability, CellTiter-Glo, 60 h; at 10 µM; hits give low values
Inconclusive results are not listed.
Write the value in % as a bare number.

For orientation, consider the following solved cases.
INSERT INTO measurements (compound, experimental_result) VALUES
  ('CCOc1ccc(-n2c(CC)nc3ccccc3c2=O)cc1', 88),
  ('c1ccc2sc(C3CCCNC3)nc2c1 (stereo not drawn)', 97.6);

Data request: Supply viability value. Item: CCOC(=O)C1SC2(C(F)(F)C(F)F)CC1(O)c1c(c(OC)c3occc3c1OC)O2 (stereo not drawn)
Data returned: 98.4

====

Parameter inhibition: see the listing below.
- MEASURED ON: Pantothenate synthetase (Mycobacterium tuberculosis (strain ATCC 25618 / H37Rv))
- EXPERIMENT DESCRIPTION: Coupled enzyme confirmation of inhibitors against recombinant Mtb PanC (AID 375);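 note: 0% = full reaction with vehicle and 100% = no enzyme background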
- MEASUREMENT PARAMETERS: coupled enzyme assay; at 10 µM, hits give high values
Calls of active or inactive are those of the source. The rule behind the calls is not given here.

For orientation, consider the following solved cases.
INSERT INTO assay_data (molecule, measured_on, experimental_result) VALUES
  ('CCOC(=O)c1c(C)oc2c1c1c(c3ccccc32)OCN(Cc2cccnc2)C1', 'Pantothenate synthetase (Mycobacterium tuberculosis (strain ATCC 25618 / H37Rv))', '6% (inactive)'),
  ('O=C1c2ccccc2C(=O)N1CNc1ccccc1', 'Pantothenate synthetase (Mycobacterium tuberculosis (strain ATCC 25618 / H37Rv))', '0% (inactive)'),
  ('COC(=O)c1[nH]c(C)c(/C(O)=C2\C(=O)C(=O)N(CCCN3CCOCC3)C2c2ccccn2)c1C (centres undefined)', 'Pantothenate synthetase (Mycobacterium tuberculosis (strain ATCC 25618 / H37Rv))', '8% (inactive)'),
  ('COc1ccc(OC)c(S(=O)(=O)N2CCC(C(=O)NCc3ccccc3OC)CC2)c1', 'Pantothenate synthetase (Mycobacterium tuberculosis (strain ATCC 25618 / H37Rv))', '0% (inactive)');

Data request: Give inhibition only, for COc1ccccc1NC(=O)NC(N)=O , using Pantothenate synthetase (Mycobacterium tuberculosis (strain ATCC 25618 / H37Rv)) data.
Data returned: 0% (inactive)

Data request: Give inhibition only, for CCC1CCCCN1CCNS(=O)(=O)c1ccc2c(c1)oc(=O)n2C (centres undefined) , using Pantothenate synthetase (Mycobacterium tuberculosis (strain ATCC 25618 / H37Rv)) data.
Data returned: 1% (inactive)

Data request: Give inhibition only, for CC(=O)Nc1ccc(NS(=O)(=O)C(F)(F)F)cc1 , using Pantothenate synthetase (Mycobacterium tuberculosis (strain ATCC 25618 / H37Rv)) data.
Data returned: 0% (inactive)

Data request: Give inhibition only, for O=C(Nc1nc(-c2ccncc2)cs1)C1COc2ccccc2O1 (centres undefined) , using Pantothenate synthetase (Mycobacterium tuberculosis (strain ATCC 25618 / H37Rv)) data.
Data returned: 0% (inactive)

Data request: Give inhibition only, for CC(NC(=O)c1cn(C)c2ccc(S(=O)(=O)N3CCCC3)cc2c1=O)c1ccc2c(c1)OCCO2 (centres undefined) , using Pantothenate synthetase (Mycobacterium tuberculosis (strain ATCC 25618 / H37Rv)) data.
Data returned: 0% (inactive)

Data request: Give inhibition only, for COc1ccc(-n2ncc3c(N4CCC(C)CC4)ncnc32)cc1 , using Pantothenate synthetase (Mycobacterium tuberculosis (strain ATCC 25618 / H37Rv)) data.
Data returned: 1% (inactive)

Data request: Give inhibition only, for N#Cc1c(N)oc(-c2cccs2)c1-c1cccs1 , using Pantothenate synthetase (Mycobacterium tuberculosis (strain ATCC 25618 / H37Rv)) data.
Data returned: 1% (inactive)

Data request: Give inhibition only, for CC(C)(C)OC(=O)N1CCCC1C(=O)N1CCc2ccccc21 (centres undefined) , using Pantothenate synthetase (Mycobacterium tuberculosis (strain ATCC 25618 / H37Rv)) data.
Data returned: 0% (inactive)

Data request: Give inhibition only, for O=C(CSc1nnc(CNC(=O)c2cccs2)o1)Nc1cccc(C(F)(F)F)c1 , using Pantothenate synthetase (Mycobacterium tuberculosis (strain ATCC 25618 / H37Rv)) data.
Data returned: 0% (inactive)

Data request: Give inhibition only, for COC1CCCCC1Nc1cccc(SC)c1 (centres undefined) , using Pantothenate synthetase (Mycobacterium tuberculosis (strain ATCC 25618 / H37Rv)) data.
Data returned: 0% (inactive)

====

- MEASURED ON: Pantothenate synthetase (Mycobacterium tuberculosis (strain ATCC 25618 / H37Rv))
- EXPERIMENT DESCRIPTION: Coupled enzyme confirmation of inhibitors against recombinant Mtb PanC (AID 375);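 note: 0% = full reaction with vehicle and 100% = no enzyme background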
- MEASUREMENT PARAMETERS: coupled enzyme assay; at 10 µM, hits give high values
QUANTITY: inhibition (%)
Write the value in % as a bare number.

For orientation, consider the following solved cases.
INSERT INTO assay_data (molecule, unit_tag, experimental_result) VALUES
  ('CCOc1ccc(C(=O)N(Cc2ccc(N(C)C)cc2)C2CCS(=O)(=O)C2)cc1 (configuration not stated)', '%', 0),
  ('CCOC(=O)C(NC(C)=O)(Nc1ccc(S(=O)(=O)Nc2nccs2)cc1)C(F)(F)F (configuration not stated)', '%', 3),
  ('Cc1ccc(-c2nc(CS(=O)CC(=O)NCCN(CC(C)C)CC(C)C)c(C)o2)cc1 (configuration not stated)', '%', 4),
  ('CCOC(=O)N1CCN(c2c(NCCCOC(C)C)c(=O)c2=O)CC1', '%', 4),
  ('COc1ccc(Cl)cc1Nc1nc(NCCO)nc(N2CCCC2)n1', '%', 9),
  ('CC(=O)c1ccc(-n2nnnc2SCC(=O)N2CCc3ccccc3C2)cc1', '%', 0);

Data request: Give inhibition only, for O=C(c1ccco1)N1CCN(CC2CC3C=CC2C3)CC1 (configuration not stated) , using Pantothenate synthetase (Mycobacterium tuberculosis (strain ATCC 25618 / H37Rv)) data.
Data returned: 7

Data request: Give inhibition only, for O=C(COC(=O)C12CC3CC(CC(O)(C3)C1)C2)N1CCN(S(=O)(=O)c2ccc(Cl)cc2)CC1 , using Pantothenate synthetase (Mycobacterium tuberculosis (strain ATCC 25618 / H37Rv)) data.
Data returned: 3

Data request: Give inhibition only, for CC(C)(C)n1ncc2c(=O)n(CC(=O)NCc3ccco3)cnc21 , using Pantothenate synthetase (Mycobacterium tuberculosis (strain ATCC 25618 / H37Rv)) data.
Data returned: 11

Data request: Give inhibition only, for Cc1noc(C)c1COC(=O)c1ccccc1Oc1ccccc1 , using Pantothenate synthetase (Mycobacterium tuberculosis (strain ATCC 25618 / H37Rv)) data.
Data returned: 0

====

- MEASURED ON: Pantothenate synthetase (Mycobacterium tuberculosis (strain ATCC 25618 / H37Rv))
- EXPERIMENT DESCRIPTION: Coupled enzyme confirmation of inhibitors against recombinant Mtb PanC (AID 375);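 note: 0% = full reaction with vehicle and 100% = no enzyme background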
- MEASUREMENT PARAMETERS: coupled enzyme assay; at 10 µM, hits give high values
Parameter inhibition: see the listing below.
Write the value in % as a bare number.

For orientation, consider the following solved cases.
INSERT INTO results (compound, measured_on, experimental_result) VALUES
  ('CCCn1nc(NS(=O)(=O)c2ccccc2)c2cc3ccccc3nc21', 'Pantothenate synthetase (Mycobacterium tuberculosis (strain ATCC 25618 / H37Rv))', 1),
  ('Cc1cccc(NC(=O)c2ccc(S(=O)(=O)N(C)C)cc2)n1', 'Pantothenate synthetase (Mycobacterium tuberculosis (strain ATCC 25618 / H37Rv))', 0);

Data request: Supply inhibition value. Item: CCN1CCN(C(=O)COc2cc(=O)n(CC)c3ccccc23)CC1
Data returned: 0

Data request: Supply inhibition value. Item: O=C(Nc1ccc2c(c1)OCO2)C(c1ccccc1)N1CCC2(CC1)OCCO2 (stereo not given)
Data returned: 0

Data request: Supply inhibition value. Item: O=C(Nc1ccccc1)c1cccc(N2CCCC2=O)c1
Data returned: 6
